Values from ChEMBL document CHEMBL5058577

Task for the reader: assign each of the following molecules its reported Population Apoptotic (%).
Tested on: U2OS
Assay: Multiplex assay against U2OS
Assay type: toxicity, cell-based
Conditions: human, 12 h, 1 µM, compound concentration 1 uM, replicate 2
Answer in %, number only, no unit symbol.

Population Apoptotic (%) lookup needed for CC[C@@H](C)Nc1nc(C)nc2c(-c3ccc(OC)nc3C)c(C)nn12 [PEXACERFONT] , thanks.
87

Dear colleague, I am looking for the recorded Population Apoptotic (%) of the following molecule: CC(/C=C1\SC(=S)N(CCCC(=O)Nc2ccc(C(=O)O)c(O)c2)C1=O)=C\c1ccccc1
100

Tell me the measured Population Apoptotic (%) of CCCOc1ccc2[nH]cc(C3=CCNCC3)c2n1.Cl , please.
87

Bench note: what Population Apoptotic (%) did Cl.NCCc1ccc(O)c(O)c1 [DOPAMINE HYDROCHLORIDE] show?
83

I would be grateful if you could share the reported Population Apoptotic (%) for Cc1noc(-c2ccc(-c3ccc(CC(=O)O)cc3)cc2)c1NC(=O)O[C@H](C)c1ccccc1Cl .
85

====

System: HEK-293T
Assay: Multiplex assay against HEK293T
Type: toxicity, cell-based
Details: human, 24 h, 10 µM, compound concentration 10 uM, replicate 2
measured.quantity: Population Fragmented Nuclei (%)
Field format: number, assumed %, no unit text.

// query Population Fragmented Nuclei (%) value for entry O=C1[C@H](Cc2ccc(O)cc2)N2C(=O)CCN(C(=O)NCc3ccccc3)[C@H]2CN1Cc1cccc2ccccc12
9

Please report the recorded Population Fragmented Nuclei (%) for Cc1c(CC(=O)O)c2cccnc2n1Cc1ccc(S(C)(=O)=O)cc1C(F)(F)F [FEVIPIPRANT] .
9

Please report the recorded Population Fragmented Nuclei (%) for CC(C)COc1ccc(CNC(=O)N(Cc2ccc(F)cc2)C2CCN(C)CC2)cc1 [PIMAVANSERIN] .
12

# lookup: Population Fragmented Nuclei (%) of CN[C@@H](C)C(=O)N[C@H](C(=O)N1CCC[C@H]1C(=O)Nc1snnc1-c1ccccc1)C1CCCCC1 [GDC-0152]
12

====

Test system: U2OS
Assay: Multiplex assay against U2OS
Assay type: toxicity, cell-based
Conditions: human, 12 h, 10 µM, compound concentration 10 uM, replicate 1
// boundary case: Population Mitotic Cells (%) equal to 20% maps to NOT MET; strictly smaller maps to MET

Just wondering, is Population Mitotic Cells (%) of Cc1cnc(-c2cc(N3CCN(C(=O)CCS(C)(=O)=O)CC3)ncc2Cl)c(C)c1 below 20%?
MET

Does the reported Population Mitotic Cells (%) of COc1cccc2c1c(NS(=O)(=O)c1ccc(Cl)s1)nn2Cc1cccc(CNC(=O)C(C)(C)O)c1 stay below 20%?
NOT MET

Answer whether the compound Cl.N=C(N)NC(=O)Cc1c(Cl)cccc1Cl [GUANFACINE HYDROCHLORIDE] has Population Mitotic Cells (%) strictly less than 20%
MET

Is Population Mitotic Cells (%) of CC(C)(C)c1cc(NC(=O)Nc2ccc(-c3cn4c(n3)sc3cc(OCCN5CCOCC5)ccc34)cc2)no1 strictly below 20%?
NOT MET

Criterion: Population Mitotic Cells (%) strictly below 20%. Is it met by CCCCCC(O)/C=C/[C@H]1C(=O)CC(O)C1C/C=C\CCCC(=O)O (stereo partly specified) ?
NOT MET
